System: B16F0 melanoma tumour
assay info: Biodistribution in B16 melanoma bearing mice
Format: in vivo, C57BL/6J mice
test settings: B16 melanoma bearing mice, 3 h
Each entry below carries its reported uptake BONE.
measurement label: uptake BONE (% ID/g)

compound | value observed
CCCCN(C)CCCCNC(=O)c1ccc(F)nc1 [[^18F]MEL4] | 1.41
CCN(CC)CCNC(=O)c1cccnc1F [[^18F]MEL6] | 4.6
CCN(CC)CCNC(=O)c1ccnc(F)c1 [[^18F]MEL8] | 0.77
CCN(CC)CCNC(=O)c1ccc(F)nc1 [[^18F]MEL2] | 0.624

====

System: B16F0 melanoma tumour
assay info: Biodistribution in B16 melanoma bearing mice
Assay type: in vivo, C57BL/6J mice
test settings: B16 melanoma bearing mice, 6 h

compound | unit spec | uptake SKIN
CCN(CC)CCNC(=O)c1cccnc1F [[^18F]MEL6] | % ID/g | 0.9
CCN(CC)CCNC(=O)c1ccc(F)nc1 [[^18F]MEL2] | % ID/g | 0.041
CCCCN(C)CCCCNC(=O)c1ccc(F)nc1 [[^18F]MEL4] | % ID/g | 0.89
CCN(CC)CCNC(=O)c1ccnc(F)c1 [[^18F]MEL8] | % ID/g | 0.29

====

Tested on: B16F0 melanoma tumour
assay info: Biodistribution in B16 melanoma bearing mice
Format: in vivo, C57BL/6J mice
test settings: B16 melanoma bearing mice, 3 h
Each entry below carries its reported uptake THYROID.

molecule | tested target | uptake THYROID / % ID/g
CCN(CC)CCNC(=O)c1cccnc1F [[^18F]MEL6] | B16F0 melanoma tumour | 2.1
CCCCN(C)CCCCNC(=O)c1ccc(F)nc1 [[^18F]MEL4] | B16F0 melanoma tumour | 2.92
CCN(CC)CCNC(=O)c1ccnc(F)c1 [[^18F]MEL8] | B16F0 melanoma tumour | 1.48
CCN(CC)CCNC(=O)c1ccc(F)nc1 [[^18F]MEL2] | B16F0 melanoma tumour | 0.488

====

Test system: B16F0 melanoma tumour
assay info: Biodistribution in B16 melanoma bearing mice
Format: in vivo, C57BL/6J mice
test settings: B16 tumour, C57BL/6J mice, 1 h, mean ± SD, n = 5
Each entry below carries its reported Uptake Lung.

compound | Uptake Lung (% ID/g)
CCCN(CCC)CCCCNC(=O)c1cncc(I)c1 [[^123I]17] | 7.5
CCN(CC)CCNC(=O)c1cncc(I)c1 [[^123I]11] | 1.4
O=C(c1cncc(I)c1)N1CCN(Cc2ccccc2)CC1 [[^123I]20] | 0.90
CCN(CC)CCNC(=O)c1ccc(I)nc1 [[^123I]14] | 4.8

====

Test system: B16F0 melanoma tumour
assay info: Biodistribution in B16 melanoma bearing mice
Type: in vivo, C57BL/6J mice
test settings: B16 melanoma bearing mice, 15 min
Each entry below carries its reported uptake KIDNEY.

molecule | tested target | uptake KIDNEY / % ID/g
CCN(CC)CCNC(=O)c1cccnc1F [[^18F]MEL6] | B16F0 melanoma tumour | 16.4
CCCCN(C)CCCCNC(=O)c1ccc(F)nc1 [[^18F]MEL4] | B16F0 melanoma tumour | 15.88
CCN(CC)CCNC(=O)c1ccnc(F)c1 [[^18F]MEL8] | B16F0 melanoma tumour | 19.45
CCN(CC)CCNC(=O)c1ccc(F)nc1 [[^18F]MEL2] | B16F0 melanoma tumour | 14.117

====

Test system: B16F0 melanoma tumour
assay info: Biodistribution in B16 melanoma bearing mice
Format: in vivo, C57BL/6J mice
test settings: B16 tumour, C57BL/6J mice, 1 h, mean ± SD, n = 5
measurement label: uptake LIVER (% ID/g)

compound | unit spec | value observed
CCN(CC)CCNC(=O)c1ccc(I)nc1 [[^123I]14] | % ID/g | 3.1
CCCN(CCC)CCCCNC(=O)c1cncc(I)c1 [[^123I]17] | % ID/g | 2.1
O=C(c1cncc(I)c1)N1CCN(Cc2ccccc2)CC1 [[^123I]20] | % ID/g | 3.6
CCN(CC)CCNC(=O)c1cncc(I)c1 [[^123I]11] | % ID/g | 1.9

====

Each entry below carries its reported uptake KIDNEY.
System: B16F0 melanoma tumour
assay info: Biodistribution in B16 melanoma bearing mice
Format: in vivo, C57BL/6J mice
test settings: B16 tumour, C57BL/6J mice, 24 h, mean ± SD, n = 5
measurement label: uptake KIDNEY

compound | measurement label | value observed
CCN(CC)CCNC(=O)c1cncc(I)c1 [[^123I]11] | uptake KIDNEY | 0.03 ± 0.01 % ID/g
CCN(CC)CCNC(=O)c1ccc(I)nc1 [[^123I]14] | uptake KIDNEY | 0.18 ± 0.05 % ID/g
O=C(c1cncc(I)c1)N1CCN(Cc2ccccc2)CC1 [[^123I]20] | uptake KIDNEY | 0.08 ± 0.01 % ID/g
CCCN(CCC)CCCCNC(=O)c1cncc(I)c1 [[^123I]17] | uptake KIDNEY | 0.12 ± 0.03 % ID/g

====

Each entry below carries its reported tumour standardized uptake value (SUVt).
Tested on: B16F0 melanoma tumour
assay info: Biodistribution in B16 melanoma bearing mice
Type: in vivo, C57BL/6J mice
test settings: B16 tumour, C57BL/6J mice, 1 h

compound | tumour standardized uptake value (SUVt)
CCN(CC)CCNC(=O)c1ccc(I)nc1 [[^123I]14] | 1.2 ± 0.1
O=C(c1cncc(I)c1)N1CCN(Cc2ccccc2)CC1 [[^123I]20] | 1.5 ± 0.4
CCN(CC)CCNC(=O)c1cncc(I)c1 [[^123I]11] | 3.7 ± 1.0
CCCN(CCC)CCCCNC(=O)c1cncc(I)c1 [[^123I]17] | 1.8 ± 0.1

====

Test system: B16F0 melanoma tumour
assay info: Biodistribution in B16 melanoma bearing mice
Type: in vivo, C57BL/6J mice
test settings: B16 melanoma bearing mice, 6 h
Procedure: Animal experiments were performed in compliance with the NHMRC Australian Code of Practice for the care and use of animals for scientific purposes. […] Eleven days (B16F0 melanoma) and 25 days (A375 human melanoma) after tumour transplantation, the [^18F]nicotinamides (0.5-1.5 MBq, 100 μl) and [^123I]nicotinamide (0.37-0.74 MBq, 100 μl) derivatives were injected intravenously via the tail vein into mice (15-18 g). […] Selected organs were weighed and their radioactivity measured with a γ-counter. […]
Each entry below carries its reported uptake BRAIN.
measurement label: uptake BRAIN (% ID/g)

compound | value observed
CCN(CC)CCNC(=O)c1cccnc1F [[^18F]MEL6] | 0.1
CCN(CC)CCNC(=O)c1ccc(F)nc1 [[^18F]MEL2] | 0.039
CCN(CC)CCNC(=O)c1ccnc(F)c1 [[^18F]MEL8] | 0.07
CCCCN(C)CCCCNC(=O)c1ccc(F)nc1 [[^18F]MEL4] | 0.37

====

Each entry below carries its reported uptake MUSCLE.
System: B16F0 melanoma tumour
assay info: Biodistribution in B16 melanoma bearing mice
Format: in vivo, C57BL/6J mice
test settings: B16 melanoma bearing mice, 1 h

molecule | uptake MUSCLE
CCN(CC)CCNC(=O)c1cccnc1F [[^18F]MEL6] | 1.2 % ID/g
CCCCN(C)CCCCNC(=O)c1ccc(F)nc1 [[^18F]MEL4] | 1.00 % ID/g
CCN(CC)CCNC(=O)c1ccc(F)nc1 [[^18F]MEL2] | 1.248 % ID/g
CCN(CC)CCNC(=O)c1ccnc(F)c1 [[^18F]MEL8] | 1.27 % ID/g

====

Tested on: B16F0 melanoma tumour
assay info: Biodistribution in B16 melanoma bearing mice
Type: in vivo, C57BL/6J mice
test settings: B16F0 tumour, C57BL/6J mice, 24 h, mean ± S.D., n = 5
Each entry below carries its reported Organ distribution Tumour.

compound | Organ distribution Tumour (% ID/organ)
CCCN(CCC)CCCCNC(=O)c1cncc(I)c1 [[^123I]17] | 0.62
O=C(c1cncc(I)c1)N1CCN(Cc2ccccc2)CC1 [[^123I]20] | 0.36
CCN(CC)CCNC(=O)c1cncc(I)c1 [[^123I]11] | 0.7
CCN(CC)CCNC(=O)c1ccc(I)nc1 [[^123I]14] | 0.11

====

Tested on: B16F0 melanoma tumour
assay info: Biodistribution in B16 melanoma bearing mice
Assay type: in vivo, C57BL/6J mice
test settings: B16 melanoma bearing mice, 3 h
measurement label: uptake KIDNEY (% ID/g)

compound | value observed
CCN(CC)CCNC(=O)c1ccnc(F)c1 [[^18F]MEL8] | 0.45
CCN(CC)CCNC(=O)c1cccnc1F [[^18F]MEL6] | 0.8
CCCCN(C)CCCCNC(=O)c1ccc(F)nc1 [[^18F]MEL4] | 2.89
CCN(CC)CCNC(=O)c1ccc(F)nc1 [[^18F]MEL2] | 0.394

====

Each entry below carries its reported uptake BRAIN.
Test system: B16F0 melanoma tumour
assay info: Biodistribution in B16 melanoma bearing mice
Format: in vivo, C57BL/6J mice
test settings: B16 tumour, C57BL/6J mice, 24 h, mean ± SD, n = 5

compound | uptake BRAIN [% ID/g]
CCN(CC)CCNC(=O)c1cncc(I)c1 [[^123I]11] | 0.01
CCCN(CCC)CCCCNC(=O)c1cncc(I)c1 [[^123I]17] | 0.02
O=C(c1cncc(I)c1)N1CCN(Cc2ccccc2)CC1 [[^123I]20] | 0.001
CCN(CC)CCNC(=O)c1ccc(I)nc1 [[^123I]14] | 0.02
